System: SF-268 CNS
assay-explanation: NCI tumour cell line growth inhibition, 48 h
property-label: TGI

compound	TGI
Cc1ccc2nc(N)[nH]c(=O)c2c1Sc1ccncc1	> 100 µM

Record TGI per entry; entries follow.
1. N#C/C(=C\c1ccc(O)c(O)c1)c1c(C#N)c(N)nn1-c1ccccc1
2. COc1ccc(CN(CCN(C)C)c2ccccn2)cc1 (tested in a mixture with another compound)
3. N#CCc1c(F)c(F)c(F)c(F)c1F

Ans:
1: > 100 µM; 2: > 100 µM; 3: > 100 µM

Record TGI per entry; entries follow.
1. Cc1cccc2c(N)c3cccc(C(=O)NCC[N+](C)(C)Cc4ccc([N+](=O)[O-])n4C)c3nc12
2. O=C(CCc1nc(=S)[nH][nH]1)Nc1cc(Cl)ccc1Cl
3. O=C1C=CC2(CCCCCCC2=O)CC1 (centres undefined)
4. CC(=O)N1C(C(=O)NN2CCOCC2)CSC1c1ccccc1 (centres undefined)
5. Cc1nnc(C[C@@H]2C=C(c3ccc(Cl)cc3)c3ccccc3-n3c(C)nnc32)o1
6. CCO/C(O)=C(/C(=N)N1CCOCC1)C(=O)Nc1cccc(C(F)(F)F)c1
7. COc1ccc(C=Nc2ccc(-c3nc4ccccc4s3)cc2)cc1OC

Ans:
["61.9 µM", "> 100 µM", "> 100 µM", "> 100 µM", "73.5 µM", "> 100 µM", "> 100 µM"]

Record TGI per entry; entries follow.
1. Cc1ccc(C2(O)c3ccccc3C(=O)N(C)C2(O)c2ccc(C)cc2)cc1 (centres undefined)
2. CC1CC(C[N+](=O)[O-])CC2(C1)OCCO2 (centres undefined)
3. C=C1CCC2CC1C(C(=O)c1c[nH]c3ccccc13)=NC2(C)C (centres undefined)

Ans:
50.6 µM
> 100 µM
> 100 µM
